Exercise: state measured IC50 for each of the compounds provided.
- testedTarget: AR-LBD and SRC1 (Homo sapiens, UniProt P10275)
- Construct: AR-LBD amino acids 658-919 expressed as a fusion protein with Gal4-DBD
- Sequence (P10275 658-919): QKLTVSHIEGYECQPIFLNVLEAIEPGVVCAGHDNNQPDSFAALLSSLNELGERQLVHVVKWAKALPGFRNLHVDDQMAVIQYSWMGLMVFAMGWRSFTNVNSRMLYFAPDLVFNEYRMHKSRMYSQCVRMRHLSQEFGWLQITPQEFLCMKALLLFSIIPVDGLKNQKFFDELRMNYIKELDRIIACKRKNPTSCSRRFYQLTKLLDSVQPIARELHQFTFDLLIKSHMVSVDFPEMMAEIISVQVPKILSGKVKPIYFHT
- testSummary: AR-SRC1 mammalian 2-hybrid assay
- details: HEK 293 cells; read-out: Inhibition DHT-induced AR-SRC1 mammalian 2 hybrid assay IC50
Just the number please, in nM, no unit attached.

Q. Suppose we examine the compound Cc1nsc(NC(=O)N2CCC(Sc3ccccc3C)CC2)n1 ; what IC50 value has been reported?
A. 290

Q. Try Cc1ccccc1-c1cc(O)c2c(c1)CN(c1nc(C(N)=O)cs1)CCO2 next.
A. 380

Q. Try Cc1c(-c2ccccc2F)[nH]c2ccc(CNC(=O)CCc3cn[nH]c3)cc12 next.
A. 600

====

- testedTarget: AR-TIF2 PPI (Homo sapiens)
- Construct: AR-LBD residues (662-919) were incorporated into one biosensor; expressed in transfected cells; host or cells: U-2 OS osteosarcoma cells, coinfected with recombinant adenoviruses
- Sequence (P10275 662-919): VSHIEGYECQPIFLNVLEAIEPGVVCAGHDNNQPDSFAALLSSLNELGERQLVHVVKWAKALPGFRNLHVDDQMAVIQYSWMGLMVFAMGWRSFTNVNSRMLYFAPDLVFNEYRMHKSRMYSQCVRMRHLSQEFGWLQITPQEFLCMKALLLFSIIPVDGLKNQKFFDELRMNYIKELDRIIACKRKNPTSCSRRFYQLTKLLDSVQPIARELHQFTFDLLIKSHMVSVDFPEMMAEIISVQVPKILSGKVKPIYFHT
- testSummary: AR-TIF2 PPIB HCS assay: inhibition of DHT-induced AR-TIF2 PPI formation (compound then DHT)
- Format: cell-based
- details: compound then DHT; U-2 OS cells; read-out: C then D IC50
- Protocol: AR-TIF2 Protein-Protein Interaction Biosensor Assay: The AR-TIF2 PPIB HCS assay was performed in U-2 OS osteosarcoma cells as described previously (Fancher et al., Assay Drug Dev Technol. 2016, 14:453-477; Fancher et al., Assay Drug Dev Technol. 2018, 16:297-319; Hua et al., Assay Drug Dev Technol. 2014, 12:395-418; Hua et al., Methods Mol Biol. 2018, 1683:211-227). […]
Exercise: state measured log10 IC50 for each of the compounds provided.
Kindly note that the scale is log10 and the underlying IC50 is in µM.

Q. Hi! What's the reported log10 IC50 for Cc1cccc2c(-c3ccc(O)c(F)c3)c[nH]c12 on AR-TIF2 PPI (Homo sapiens)?
A. 0.59

Q. Try Cc1cccc2c(-c3ccc(Cl)c(C(N)=O)c3)c[nH]c12 next.
A. 0.00

Q. Try Cc1c(-c2ccccc2F)[nH]c2ccc(CNC(=O)CCc3cnccn3)cc12 next.
A. 0.71

Q. Try COc1cc(-c2ccc(C)s2)cc2c1OCCN(c1nc(C(N)=O)cs1)C2 next.
A. 1.42

Q. Try CCc1[nH]c2c(CNC(=O)CCCc3cn[nH]c3)cc(F)cc2c1C next.
A. 1.89

Q. Try Cc1ccccc1-c1cc(O)c2c(c1)CN(c1nccs1)CCO2 next.
A. 1.48

Q. Try Cc1ccccc1-c1cc(O)c2c(c1)CN(c1nc(C(N)=O)cs1)CCO2 next.
A. 0.75

Q. Try Cc1c(-c2ccccc2F)[nH]c2ccc(CNC(=O)c3ccc(CO)o3)cc12 next.
A. 0.38

Q. Try Cc1c(-c2ccccc2F)[nH]c2ccc(CNC(=O)CCc3cn[nH]c3)cc12 next.
A. 0.51

Q. Try Cc1c(-c2ccccc2F)[nH]c2ccc(CNC(=O)c3cc[nH]n3)cc12 next.
A. 1.46

Q. Try Cc1ccc2[nH]cc(-c3cc(CN)ccc3F)c2c1 next.
A. 1.79

Q. Try Cc1nc(N)cc(N2CCOc3c(O)cc(-c4ccccc4C)cc3C2)n1 next.
A. 1.16

Q. Try CC(=O)NCCC(=O)NCc1ccc2[nH]c(-c3ccccc3F)c(C)c2c1 next.
A. 0.90

Q. Try Cc1c(-c2ccccc2F)[nH]c2ccc(CNC(=O)Cc3cccnc3)cc12 next.
A. 1.84

Q. Try Cc1cccc2c(-c3cccc(C(N)=O)n3)c[nH]c12 next.
A. 0.61

Q. Try Cc1c(-c2ccc(F)cc2)[nH]c2ccc(CNC(=O)c3ccc(CO)o3)cc12 next.
A. 0.83

Q. Try CNC(=O)c1ccc(-c2c[nH]c3c(C)cccc23)cc1 next.
A. 1.56
